Value source: patent US8436006B2

molecular target: β-secretase (BACE) (Homo sapiens, UniProt P56817); construct: purchased Panvera; assay: BACE FS1% Inhibition Assay (Example 160); assay type: biochemical; details: 1 μM test compound
Sequence (P56817 46-501): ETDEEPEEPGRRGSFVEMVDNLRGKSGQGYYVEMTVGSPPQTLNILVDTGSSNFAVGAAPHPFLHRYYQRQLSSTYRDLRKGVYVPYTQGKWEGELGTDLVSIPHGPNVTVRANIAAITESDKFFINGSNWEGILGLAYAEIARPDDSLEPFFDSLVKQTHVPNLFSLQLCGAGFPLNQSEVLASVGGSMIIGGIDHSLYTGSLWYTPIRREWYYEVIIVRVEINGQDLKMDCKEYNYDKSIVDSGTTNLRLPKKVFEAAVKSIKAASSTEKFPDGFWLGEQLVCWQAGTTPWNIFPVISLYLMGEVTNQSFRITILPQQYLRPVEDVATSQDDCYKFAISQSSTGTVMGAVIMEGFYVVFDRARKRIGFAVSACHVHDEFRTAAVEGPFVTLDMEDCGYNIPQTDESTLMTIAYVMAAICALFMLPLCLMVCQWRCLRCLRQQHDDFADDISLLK
Is % Inhibition (FS) at least 70%? Then True. If not, False.

[Q] Is reported % Inhibition (FS) greater than or equal to 70% here: CN(CCc1ccccc1)C(=O)CC[C@@H](C1CCCCC1)N1Cc2cc(-c3ccccc3F)ccc2N=C1N
[A] True

[Q] Is reported % Inhibition (FS) greater than or equal to 70% here: CCCCC(CC)C(=O)NCCN1Cc2cc(-c3ccccc3C)ccc2N=C1N (centres unmarked)
[A] True

[Q] Is reported % Inhibition (FS) greater than or equal to 70% here: NC1=Nc2ccc(-c3ccccc3F)cc2CN1CCNC(=O)CCC(F)(F)F
[A] True

[Q] Is reported % Inhibition (FS) greater than or equal to 70% here: CC(C)C(CNC(=O)C12CC3CC(CC(C3)C1)C2)N1Cc2cc(Oc3ccccc3)ccc2N=C1N (centres unmarked)
[A] True

[Q] Is reported % Inhibition (FS) greater than or equal to 70% here: COc1cccc(F)c1-c1ccc2c(c1)CN(CCNC(=O)C1CCC(C(F)(F)F)CC1)C(N)=N2 (centres unmarked)
[A] False

[Q] Is reported % Inhibition (FS) greater than or equal to 70% here: COC(=O)Cc1cccc(CN(C)C(=O)CCC(C2CCCCC2)N2Cc3cc(Oc4ccccc4)ccc3N=C2N)c1 (centres unmarked)
[A] False

[Q] Is reported % Inhibition (FS) greater than or equal to 70% here: NC1=Nc2ccc(-c3ccc4ccccc4c3)cc2CN1CCNC(=O)CCC(F)(F)F
[A] True

[Q] Is reported % Inhibition (FS) greater than or equal to 70% here: COc1ccccc1-c1ccc2c(c1)CN(CCNC(=O)C1CCC(C(F)(F)F)CC1)C(N)=N2 (centres unmarked)
[A] False

---

Kindly supply the reported % Inhibition (FS) values for the records listed here.
target: β-secretase (BACE) (Homo sapiens); construct: purchased Panvera; test: BACE FS1% Inhibition Assay (Example 160); format: biochemical; conditions: 1 μM test compound
Give the quantity in %, number only.

[Q] Returns the measured % Inhibition (FS) for the input compound. Input: CN(C(=O)CCC(C)(C)N1Cc2cc(Oc3ccccc3)ccc2N=C1N)C1CCCCC1 [Compound 738]
[A] 28

[Q] Returns the measured % Inhibition (FS) for the input compound. Input: Cc1ccccc1-c1ccc2c(c1)CN(CCNC(=O)CC(C)C(F)(F)F)C(N)=N2 (stereo not shown) [Compound 679]
[A] 99

[Q] Returns the measured % Inhibition (FS) for the input compound. Input: NC1=Nc2ccc(Oc3ccccc3)cc2CN1Cc1cccc(C(=O)N(C2CCCCC2)C2CCCCC2)c1 [Compound 98]
[A] 93

[Q] Returns the measured % Inhibition (FS) for the input compound. Input: CN(C(=O)CC[C@@H](C1CCCCC1)N1Cc2ccc(Oc3ccccc3)cc2N=C1N)C1CCCCC1 [Compound 754]
[A] 35

[Q] Returns the measured % Inhibition (FS) for the input compound. Input: CCCC(CCC)C(=O)NCC(C1CCCCC1)N1Cc2cc(Oc3ccccc3)ccc2N=C1N (stereo not shown) [Compound 302]
[A] 72

[Q] Returns the measured % Inhibition (FS) for the input compound. Input: CN(Cc1cccc(CC(=O)O)c1)C(=O)CCC(C1CCCCC1)N1Cc2cc(Oc3ccccc3)ccc2N=C1N (stereo not shown) [Compound 778]
[A] 77

[Q] Returns the measured % Inhibition (FS) for the input compound. Input: CN(CCC#N)C(=O)CC[C@@H](C1CCCCC1)N1Cc2cc(-c3ccccc3F)ccc2N=C1N [Compound 725]
[A] 74

[Q] Returns the measured % Inhibition (FS) for the input compound. Input: CNC(=O)C1CCC(N(C)C(=O)CCC(C2CCCCC2)N2Cc3cc(Oc4ccccc4)ccc3N=C2N)CC1 (stereo not shown) [Compound 765]
[A] 56

[Q] Returns the measured % Inhibition (FS) for the input compound. Input: CN(CC(=O)O)C(=O)CCC(C1CCCCC1)N1Cc2cc(Oc3ccccc3)ccc2N=C1N (stereo not shown) [Compound 767]
[A] 71

[Q] Returns the measured % Inhibition (FS) for the input compound. Input: COC(=O)C1CCCC(N(C)C(=O)CCC(C2CCCCC2)N2Cc3cc(Oc4ccccc4)ccc3N=C2N)C1 (mixture of isomers) [Compound 777]
[A] 97
